system: human BRS-3-receptor (Homo sapiens)
protocol: p42/44 MAPK phosphorylation
Format: cell-based
experimentalContext: EC50, p42/44 phosphorylation, NCI-N417
pEC50: −log10 of the molar value.

compoundSmiles	system	pEC50
O[C@@](Cc1nc(CC2(C(F)(F)F)CC2)c[nH]1)(c1ccc(-n2cccn2)cc1)C(F)(F)F	human BRS-3-receptor (Homo sapiens)	10.70

* * *

system: human BRS-3-receptor (Homo sapiens, UniProt P32247)
protocol: p42/44 MAPK phosphorylation
Format: cell-based
experimentalContext: EC50, p42/44 phosphorylation, BRS-3/H1299-cells
pEC50: −log10 of the molar value.

compoundSmiles	pEC50
O[C@@](Cc1nc(CC2(C(F)(F)F)CC2)c[nH]1)(c1ccc(-n2cccn2)cc1)C(F)(F)F	8.72

* * *

system: human BRS-3-receptor (Homo sapiens)
Sequence (P32247 1-399): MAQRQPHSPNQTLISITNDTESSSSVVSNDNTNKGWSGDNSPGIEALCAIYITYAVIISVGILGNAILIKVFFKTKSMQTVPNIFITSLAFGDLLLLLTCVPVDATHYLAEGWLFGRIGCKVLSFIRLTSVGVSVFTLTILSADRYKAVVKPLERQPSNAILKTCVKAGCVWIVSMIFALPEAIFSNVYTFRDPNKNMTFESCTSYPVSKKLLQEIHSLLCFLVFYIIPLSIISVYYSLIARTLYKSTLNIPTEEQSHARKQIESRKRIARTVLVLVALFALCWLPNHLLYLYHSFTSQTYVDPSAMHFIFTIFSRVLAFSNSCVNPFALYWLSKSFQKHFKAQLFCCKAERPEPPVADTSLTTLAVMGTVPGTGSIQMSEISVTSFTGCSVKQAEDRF
protocol: p42/44 MAPK phosphorylation
Type: cell-based
experimentalContext: EC50, p42/44 phosphorylation, NCI-H82

compoundSmiles	EC50 [nM]
O[C@@](Cc1nc(CC2(C(F)(F)F)CC2)c[nH]1)(c1ccc(-n2cccn2)cc1)C(F)(F)F	1.08

* * *

Test system: human lung-cancer cells
protocol: cells
Assay type: cell-based
experimentalContext: Homo sapiens, NCI-H69, read-out: EC50, [3H]-Thymidine-uptake

compoundSmiles	EC50
O[C@@](Cc1nc(CC2(C(F)(F)F)CC2)c[nH]1)(c1ccc(-n2cccn2)cc1)C(F)(F)F	0.27 nM

* * *

system: human BRS-3-receptor (Homo sapiens)
Sequence (P32247 1-399): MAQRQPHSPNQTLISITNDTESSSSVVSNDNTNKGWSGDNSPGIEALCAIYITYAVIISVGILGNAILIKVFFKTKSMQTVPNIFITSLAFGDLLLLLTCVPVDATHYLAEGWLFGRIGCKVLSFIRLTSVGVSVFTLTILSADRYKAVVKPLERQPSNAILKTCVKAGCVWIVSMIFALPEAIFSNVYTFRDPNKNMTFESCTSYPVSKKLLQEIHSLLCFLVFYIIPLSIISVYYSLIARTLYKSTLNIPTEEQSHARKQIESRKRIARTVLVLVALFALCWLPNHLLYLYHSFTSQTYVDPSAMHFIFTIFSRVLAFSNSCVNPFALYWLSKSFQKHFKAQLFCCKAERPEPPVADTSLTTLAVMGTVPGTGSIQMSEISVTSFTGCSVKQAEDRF
protocol: p42/44 MAPK phosphorylation
Assay type: cell-based
experimentalContext: EC50, p42/44 phosphorylation, NCI-H727

compoundSmiles	EC50 [nM]
O[C@@](Cc1nc(CC2(C(F)(F)F)CC2)c[nH]1)(c1ccc(-n2cccn2)cc1)C(F)(F)F	0.02

* * *

system: human BRS-3-receptor (Homo sapiens)
protocol: p42/44 MAPK phosphorylation
Format: cell-based
experimentalContext: EC50, p42/44 phosphorylation, NCI-H69
assayMetric: EC50 (nM)

compoundSmiles	assayMetric	endpointResult
O[C@@](Cc1nc(CC2(C(F)(F)F)CC2)c[nH]1)(c1ccc(-n2cccn2)cc1)C(F)(F)F	EC50	0.12
